Reported binding signal values follow for various sequences
Assay Target: GST-Hu-p50 (Homo sapiens, UniProt P19838 7-356)
Sequence (P19838 7-356): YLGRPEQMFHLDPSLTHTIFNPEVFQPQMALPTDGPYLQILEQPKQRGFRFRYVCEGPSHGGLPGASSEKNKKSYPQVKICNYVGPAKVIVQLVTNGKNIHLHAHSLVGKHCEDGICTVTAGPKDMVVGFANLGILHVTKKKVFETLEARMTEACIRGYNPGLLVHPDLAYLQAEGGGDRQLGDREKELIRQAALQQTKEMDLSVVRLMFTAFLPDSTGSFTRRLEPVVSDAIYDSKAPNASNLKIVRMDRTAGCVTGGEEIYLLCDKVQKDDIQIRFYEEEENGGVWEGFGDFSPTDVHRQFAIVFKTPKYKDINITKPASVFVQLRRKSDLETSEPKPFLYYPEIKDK
Assay Remarks: protein-binding microarray (PBM); PBM: ~300 nM protein, 6 mM HEPES pH 7.8, 80 mM KCl, 0.5 mM EDTA, 0.5 mM EGTA, 6% glycerol, 35 ng/ul poly-dIdC, 1% milk, 1 h, room temperature; Ap Aiptasia and Nv Nematostella (sea anemones) / Co Capsaspora / Aq Amphimedon (sponge) / Dm Drosophila / Hu human; RHD is the Rel homology domain; high values mean tight binding
Details: dsDNA, one strand shown
Field note: include the unit after the figure.

Consider the sequence shown here: CCGATTAACATCAAGGAGTTCCCTGATGTTAATCGGGTCTTGATTCGCTTGACGCTGCTG What is its recorded binding signal?
2.1 z-score

Do the same for CCGATTAACATCACAGAAATCCCTGATGTTAATCGGGTCTTGATTCGCTTGACGCTGCTG please
3.37 z-score

Do the same for CCGATTAACATCAGAGCCCCCCCTGATGTTAATCGGGTCTTGATTCGCTTGACGCTGCTG please
3.47 z-score
